Data origin: ChEMBL document CHEMBL5665443

Biological target: Endonuclease 8-like 1 (Homo sapiens) (UniProt Q96FI4)
Sequence (Q96FI4 whole entry): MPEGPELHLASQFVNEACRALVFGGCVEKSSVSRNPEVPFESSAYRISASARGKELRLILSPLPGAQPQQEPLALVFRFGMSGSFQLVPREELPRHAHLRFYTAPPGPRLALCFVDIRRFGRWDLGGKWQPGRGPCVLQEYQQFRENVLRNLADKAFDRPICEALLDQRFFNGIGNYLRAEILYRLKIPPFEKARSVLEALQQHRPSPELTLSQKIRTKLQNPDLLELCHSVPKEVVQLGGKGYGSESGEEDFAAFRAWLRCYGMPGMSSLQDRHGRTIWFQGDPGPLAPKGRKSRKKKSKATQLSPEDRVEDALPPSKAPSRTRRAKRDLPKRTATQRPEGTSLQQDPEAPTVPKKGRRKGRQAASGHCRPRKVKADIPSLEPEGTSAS
Details: Compound Concentration 10.0 uM, Hit No
Description: Inhibition of NEIL1 by quantifying inhibition of NEIL1-mediated cleavage and dissociation of quenched duplex DNA oligonucleotides, measured as fluorescence at 594 nm.
A collection of compounds and their measured inhibition
METRIC: inhibition

| COMPOUND | TARGET | VAL |
| --- | --- | --- |
| O=C(NCC12CC3CC(CC(C3)C1)C2)c1ccccc1Cl | Endonuclease 8-like 1 (Homo sapiens) (UniProt Q96FI4) | 11.9% |
| CO[C@H]1CC=C2CCN3CCC4=C(CC(=O)OC4)[C@]23C1 | Endonuclease 8-like 1 (Homo sapiens) (UniProt Q96FI4) | -3.1% |
| CCC(=O)OCC(=O)[C@@]1(OC(=O)CC)[C@@H](C)C[C@H]2[C@@H]3CCC4=CC(=O)C=C[C@]4(C)[C@@]3(Cl)[C@@H](O)C[C@@]21C | Endonuclease 8-like 1 (Homo sapiens) (UniProt Q96FI4) | 7.21% |
| O=C(O)c1cc(F)c2nc(N3[C@@H]4CC[C@H]3C[C@@H](OCc3c(-c5ccccc5OC(F)(F)F)noc3C3CC3)C4)sc2c1 | Endonuclease 8-like 1 (Homo sapiens) (UniProt Q96FI4) | -9.38% |
| CCOC(=O)N1CCC(NS(=O)(=O)c2ccc(NC(=O)c3ccccc3C)c3ccccc23)CC1 | Endonuclease 8-like 1 (Homo sapiens) (UniProt Q96FI4) | 16.8% |
| Cc1c(Cc2ccc3ccccc3n2)c2cc(F)ccc2n1CC(=O)O | Endonuclease 8-like 1 (Homo sapiens) (UniProt Q96FI4) | 9.88% |
| FC(F)(F)c1ccc2c(c1)nc(-c1cccnc1)n2C1CC1 | Endonuclease 8-like 1 (Homo sapiens) (UniProt Q96FI4) | -3.77% |
| CC[C@@H](Nc1c(C#N)c(-c2ccc(-c3cccc(C)c3F)cc2)nc2cnccc12)C(=O)O | Endonuclease 8-like 1 (Homo sapiens) (UniProt Q96FI4) | -1.4% |
| O=C(c1cc2c(cc1F)OC(c1ccc(F)cc1)(c1ccc(Cl)cc1Cl)O2)N1CCOCC1 (centres undefined) | Endonuclease 8-like 1 (Homo sapiens) (UniProt Q96FI4) | 3.95% |

----------
Biological target: Endonuclease 8-like 1 (Homo sapiens) (UniProt Q96FI4);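 further: fluorescence at 594 nm from quenched duplex DNA oligonucleotides released by NEIL1 cleavage and strand separation, reported as reduction of this enzyme activity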
Conditions: Compound Concentration 10.0 uM, Hit No

| STRUCTURE AS SMILES | inhibition / % |
| --- | --- |
| O=C(O)COc1cccc(CN(Cc2ccc(-n3cccn3)cc2)S(=O)(=O)c2cccnc2)c1 | 0.389 |
| CS(=O)(=O)c1cccc(NC(=O)N(Cc2ccc(C(=O)Nc3nnn[nH]3)cc2)c2ccc(C3CCCCC3)cc2)c1 | 1.57 |
| Nc1nc(NCCc2ccc(O)cc2)nc2nc(-c3ccco3)nn12 | -1.69 |
| C[C@@H](NC(=O)Cc1ccc(C2CC2)cc1)c1ccc(OCC(F)(F)F)cn1 | 0.602 |
| CCN(c1ccccc1)c1cc(NC)[n+](C)c(C)n1 | -3.4 |
| COC[C@@H](c1ccc(C(F)(F)F)cc1)N1CCN(C2(C)CCN(C(=O)c3c(C)ncnc3C)CC2)C[C@@H]1C | -4.58 |
| CC(C)Oc1ccc(-c2nn([C@@H](C)c3oc4ccc(F)cc4c(=O)c3-c3cccc(F)c3)c3ncnc(N)c23)cc1F | -4.09 |
| Cc1cc(-n2nc(Cc3cc(F)cc(C(F)(F)F)c3)nc2C)ccc1C(N)=O | -6.95 |
| c1ccc(NCc2ccc(CNc3ccccn3)cc2)nc1 | 3.5 |

----------
Target: DNA-3-methyladenine glycosylase (Homo sapiens);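 further: enzyme assay where MPG cuts a quenched duplex DNA oligonucleotide probe, paired with APE1 for strand incision and turnover, read as fluorescence at 594 nm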
Settings: Compound Concentration 10.0 uM, Hit No
Description: Inhibition of MPG by quantifying inhibition of MPG-mediated cleavage and dissociation of quenched duplex DNA oligonucleotides, measured as fluorescence at 594 nm. To generate a functional strand incision and increase turn-over this assay is coupled to APE1.
METRIC: inhibition (%)

| COMPOUND | METRIC | VAL |
| --- | --- | --- |
| CC(C)c1cc(-c2ccc(F)c3ccccc23)nc(N)n1 | inhibition | -4.83 |
| COc1cccc([C@H](O)C2CCN(CCc3ccc(F)cc3)CC2)c1OC | inhibition | -10 |
| Cn1c(=O)n(CCCO)c(=O)c2c1nc(Oc1cccc(OC(F)(F)F)c1)n2Cc1ccc(Cl)cc1 | inhibition | 13.8 |
| Cc1cnc(CNCC2(F)CCN(C(=O)c3ccc(F)c(Cl)c3)CC2)nc1 | inhibition | 6.04 |
| O=C(O)C1CN(Cc2ccc(-c3nc4cc(Cc5ccccc5F)ccc4s3)c(F)c2)C1 | inhibition | -8.77 |
| N[C@@H](Cn1cc(F)c(=O)[nH]c1=O)C(=O)O | inhibition | 0.976 |
| O=C(O)C[C@H]1CCc2c1[nH]c1ccc(OCc3ccc(C4CCCC4)c(C(F)(F)F)c3)cc21 | inhibition | 18.9 |
| Cc1ccccc1C(=O)Nc1ccc(C(=O)N2CCCC(O)c3cc(Cl)ccc32)c(C)c1 (stereo not given) | inhibition | 0.836 |
| CCNC(=O)NS(=O)(=O)c1sc(CC(C)C)cc1-c1ccc(Cn2c(-c3ccccc3)nc(OC)c2C=O)cc1 | inhibition | 51.7 |
| COc1ccc(CC(=O)NC(N/C(=N/C#N)Nc2cccc3ncccc23)C(C)(C)C)cc1OC (stereo not given) | inhibition | 7.8 |
| COCCn1c(C)c(C)s/c1=N\C(=O)C1C(C)(C)C1(C)C | inhibition | -8.69 |
| NCC(O)c1ccc(O)cc1 (stereo not given) | inhibition | 13.2 |
| CC(C)c1ccc(CC(=O)N[C@H](C)c2ccc(OCC(F)(F)F)cn2)cc1 | inhibition | 9.35 |
| COc1cc(Nc2ccc([N+](=O)[O-])cc2C(=O)O)cc2ccccc12 | inhibition | 44 |
| C[C@@H](C(N)=O)[C@H](N)c1nc2ccc(C(C)(C)C)cc2[nH]1 | inhibition | 2.09 |
| O=C(O)COc1cccc(CN(Cc2ccc(-n3cccn3)cc2)S(=O)(=O)c2cccnc2)c1 | inhibition | 2.46 |
| CCCCCCCC/C=C\CCCCCCCC(=O)NCc1ccc(O)c(OC)c1 | inhibition | -5.12 |
| OC(CN1CCC(Cc2ccc(F)cc2)CC1)c1ccc(Cl)cc1 (stereo not given) | inhibition | 4.63 |
| CCN(CC)S(=O)(=O)Nc1cccc(-c2ccc3c(NC(=O)C4CC4)n[nH]c3c2)c1 | inhibition | 3.86 |
| c1nc(CC2CCNCC2)c[nH]1 | inhibition | -7.11 |
| CCCCC[C@H](O)/C=C/[C@@H]1[C@@H](C/C=C\CCCC(=O)O)[C@@H](O)C[C@H]1O | inhibition | -6.92 |
| O=C(NS(=O)(=O)N1CCC1)c1cc(C2CC2)c(OCC23CC4CC(CC(C4)C2)C3)cc1F | inhibition | 60.8 |
| CC[C@H]1[C@@H](O)[C@@H]2[C@H](CC[C@]3(C)[C@@H]([C@H](C)CCC(=O)O)CC[C@@H]23)[C@@]2(C)CC[C@@H](O)C[C@@H]12 | inhibition | 17.5 |
| Cc1ccc2c(c1CCC(=O)O)CC[C@@H](NS(=O)(=O)c1ccc(Cl)cc1)C2 | inhibition | 11.8 |
| O=C1c2ccccc2C(Cc2ccncc2)(Cc2ccncc2)c2ccccc21 | inhibition | 12.1 |
| Nc1nc2cc(-c3cc(Cl)ccc3Oc3cc(F)c(S(=O)(=O)Nc4ncns4)cc3F)ccc2[nH]1 | inhibition | 20.7 |
| Cc1cccc(C2CN(C)CCc3c2cc(O)c(O)c3Cl)c1 (stereo not given) | inhibition | 15 |
| O=c1c(Br)ccc2n1C[C@@H]1CNC[C@H]2C1 | inhibition | 3.69 |
| NS(=O)(=O)c1c(Cl)ccc(NC(=O)Nc2cccc(Cl)c2Cl)c1O | inhibition | 14.5 |
| CS(=O)(=O)c1ccc(C(=O)Nc2ccc(Cl)c(-c3ccccn3)c2)c(Cl)c1 | inhibition | 3.65 |
| COc1cc2nc(N(C)CCCNC(=O)C3CCCO3)nc(N)c2cc1OC (stereo not given) | inhibition | 21.4 |
| CC(C)Cc1ccc([C@@H](C)C(=O)NS(C)(=O)=O)cc1 | inhibition | -0.553 |
| COc1cc(NC(=O)CCN2CCC(OC(=O)Nc3ccccc3-c3ccccc3)CC2)c(Cl)cc1CNC[C@H](O)c1ccc(O)c2[nH]c(=O)ccc12 | inhibition | 7.51 |
| CCCCCCCCc1ccc(CC[C@](N)(CO)COP(=O)(O)O)cc1 | inhibition | 7.62 |
| CC[C@H](C(=O)Nc1ccccc1N1CCCC1)c1ccccc1 | inhibition | 33.7 |
| CSc1cc2c(cc1C(F)(F)F)N(C(=O)Nc1cccnc1)CC2 | inhibition | -3.29 |
| C[N+]1(C)[C@@H]2C[C@@H](OC(=O)C(O)(c3cccs3)c3cccs3)C[C@H]1[C@@H]1O[C@@H]12 | inhibition | -7.84 |
| NC(CCP(=O)(O)O)C(=O)O (racemic) | inhibition | -3.6 |
| Cc1nc(C(=O)N2CCC[C@H]2Cc2nnc(-c3ccccc3)o2)c(-c2ccccc2F)s1 | inhibition | -2.02 |
| CC(=O)Nc1cccc2c1c(Sc1ccc(Cl)cc1)c(C)n2CC(=O)O | inhibition | 5.39 |
